- Subject of test: T1, NPR-B (natriuretic peptide receptor B), murine, expressed endogenously on NIH3T3 cells (murine, UniProt Q6VVW5 17-1047)
- T1 sequence (looked up): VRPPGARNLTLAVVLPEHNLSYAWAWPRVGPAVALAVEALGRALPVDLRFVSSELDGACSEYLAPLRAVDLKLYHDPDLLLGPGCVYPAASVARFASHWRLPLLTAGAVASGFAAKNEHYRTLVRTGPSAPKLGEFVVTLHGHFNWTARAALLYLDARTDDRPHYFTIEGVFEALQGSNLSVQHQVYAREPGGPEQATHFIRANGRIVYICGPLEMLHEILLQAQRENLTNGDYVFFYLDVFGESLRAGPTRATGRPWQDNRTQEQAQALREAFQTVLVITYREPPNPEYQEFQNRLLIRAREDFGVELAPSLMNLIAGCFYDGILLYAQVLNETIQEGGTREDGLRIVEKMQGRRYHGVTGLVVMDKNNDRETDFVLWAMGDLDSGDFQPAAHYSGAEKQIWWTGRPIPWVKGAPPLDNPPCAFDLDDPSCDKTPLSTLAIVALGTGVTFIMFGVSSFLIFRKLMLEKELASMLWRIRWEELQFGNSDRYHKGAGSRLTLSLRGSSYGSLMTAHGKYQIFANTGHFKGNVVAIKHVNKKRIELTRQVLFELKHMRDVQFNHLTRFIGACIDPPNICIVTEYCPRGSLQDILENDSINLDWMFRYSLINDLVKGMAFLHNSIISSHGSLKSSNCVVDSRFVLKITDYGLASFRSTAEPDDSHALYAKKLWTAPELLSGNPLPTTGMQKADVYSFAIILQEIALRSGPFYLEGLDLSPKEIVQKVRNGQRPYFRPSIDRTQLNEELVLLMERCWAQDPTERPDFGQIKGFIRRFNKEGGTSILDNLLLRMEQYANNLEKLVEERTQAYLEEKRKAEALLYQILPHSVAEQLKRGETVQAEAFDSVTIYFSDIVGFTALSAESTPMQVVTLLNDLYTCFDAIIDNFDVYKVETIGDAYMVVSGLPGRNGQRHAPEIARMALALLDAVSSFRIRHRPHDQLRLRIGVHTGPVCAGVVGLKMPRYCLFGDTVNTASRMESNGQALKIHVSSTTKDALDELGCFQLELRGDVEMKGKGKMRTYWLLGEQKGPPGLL
- Measurement protocol: cell-based or functional assay
Where no end group is shown, it is not given here. [ ]: non-standard residue; d: D form. tBuAla = CC(C)(C)C[C@H](N)C(=O)O
Measured cGMP response rel. to 1 uM CNP22; 10 nM peptide, NIH3T3 cells values are reported for all entries that follow.
Readout label: cGMP response rel. to 1 uM CNP22; 10 nM peptide, NIH3T3 cells

GLSRGCFGLKLDRIGSMSSLGC [CNP22, K4R, G19S] ... 21 rel. to 1 uM CNP22 (100)
GLSRRCFGLKLDRIGSMSGLGC [CNP22, K4R, G5R] ... 18 rel. to 1 uM CNP22 (100)
GLSRGCFGLKLDRIGSMSG[tBuAla]GC (ends and bridges not checked) [CNP22, K4R, L20t-butyl-Ala] ... 1 rel. to 1 uM CNP22 (100)
GLSRGCFVLKLDRIGSMSGLGC [CNP22, K4R, G8V] ... 3 rel. to 1 uM CNP22 (100)
GLSRGCFGLQLDRIGSMSGLGC [CNP22, K4R, K10Q] ... 9 rel. to 1 uM CNP22 (100)
GLSRGCFGLKLDRIRSMSGLGC [CNP22, K4R, G15R] ... 0.3 rel. to 1 uM CNP22 (100)
GLSRGCFGLKLDRIGQMSGLGC [CNP22, K4R, S16Q] ... 42 rel. to 1 uM CNP22 (100)
